# TARGET UNDER TEST: Human SST5 somatostatin receptor (SSTR5) (Homo sapiens, UniProt P35346)
# Construct: expressed in transfected cells; host or cells: HEK-293 EBNA
# Sequence (P35346 whole entry): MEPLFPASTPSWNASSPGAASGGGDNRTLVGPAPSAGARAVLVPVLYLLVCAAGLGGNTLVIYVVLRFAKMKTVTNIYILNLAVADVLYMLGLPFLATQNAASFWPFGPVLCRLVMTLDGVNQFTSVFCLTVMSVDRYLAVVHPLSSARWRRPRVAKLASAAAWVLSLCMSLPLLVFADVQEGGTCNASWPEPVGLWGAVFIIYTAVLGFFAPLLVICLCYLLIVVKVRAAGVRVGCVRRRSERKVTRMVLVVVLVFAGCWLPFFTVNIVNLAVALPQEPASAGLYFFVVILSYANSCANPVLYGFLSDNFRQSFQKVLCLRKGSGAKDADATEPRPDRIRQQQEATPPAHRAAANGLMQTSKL
# TEST NAME: Filter plate assay for SST5 receptor, displacement of [125I]SST-14
# Format: binding
# CONDITION CONTEXT: 10 uM
Each entry below carries its reported SSTR5 Inhib 10 uM % (inhibition of binding of SST-14 to SSTR5).
I only need the number, in %, no unit after it.

The following compounds have reported results that may help.
COC1C(O)C(COCc2ccc(-c3ccccc3)cc2)OC(OCc2ccc(Cl)cc2)C1NC(=O)CCCN (stereo not shown) :: 95
COC1C(O)C(COCc2ccc3ccccc3c2)OC(OCc2ccc3ccccc3c2)C1NC(=O)CCNC(=N)N (stereo not shown) :: 82
COC[C@H]1OC(OCc2ccc(-c3ccccc3)cc2)[C@H](NC(=O)CCCNC(=N)N)[C@@H](OCc2ccc3ccccc3c2)[C@@H]1O (stereo partly shown) [Compound 178] :: 71
COC[C@H]1OC(OCc2ccc(Cl)cc2)[C@H](NC(=O)CCN)[C@H](OCc2ccc(Cl)cc2)[C@@H]1O (stereo partly shown) :: 95
COC[C@H]1OC(OCCc2ccccc2)[C@H](NC(=O)CCCNC(=N)N)[C@@H](OCc2ccc(Cl)cc2)[C@@H]1O (stereo partly shown) [Compound 168] :: 72

Problem: Using the record for COC[C@H]1OC(OCc2ccccc2)[C@H](NC(=O)CCCN)[C@@H](OCc2ccc(-c3ccccc3)cc2)[C@@H]1O (stereo partly shown) , report its SSTR5 Inhib 10 uM % (inhibition of binding of SST-14 to SSTR5).
Result: 85

Problem: Using the record for COC1C(O)C(COCc2ccc(-c3ccccc3)cc2)OC(OCc2ccc(Cl)cc2)C1NC(=O)CNC(=N)N (stereo not shown) , report its SSTR5 Inhib 10 uM % (inhibition of binding of SST-14 to SSTR5).
Result: 71

Problem: Using the record for COC[C@H]1OC(OCc2ccccc2)[C@H](NC(=O)CCCN)[C@H](OCc2ccc(-c3ccccc3)cc2)[C@@H]1O (stereo partly shown) , report its SSTR5 Inhib 10 uM % (inhibition of binding of SST-14 to SSTR5).
Result: 93

Problem: Using the record for CSC1O[C@H](COCc2ccc3ccccc3c2)[C@@H](O)[C@@H](OCc2ccc(Cl)cc2)[C@H]1NC(=O)CCN (stereo partly shown) , report its SSTR5 Inhib 10 uM % (inhibition of binding of SST-14 to SSTR5).
Result: 75

Problem: Using the record for COC[C@H]1OC(OCc2ccccc2)[C@H](NC(=O)CCN)[C@H](OCc2ccc(Cl)cc2)[C@@H]1O (stereo partly shown) , report its SSTR5 Inhib 10 uM % (inhibition of binding of SST-14 to SSTR5).
Result: 96

Problem: Using the record for COC[C@H]1OC(OCc2ccc3ccccc3c2)[C@H](NC(=O)CNC(=N)N)[C@@H](OCc2ccc3ccccc3c2)[C@@H]1O (stereo partly shown) , report its SSTR5 Inhib 10 uM % (inhibition of binding of SST-14 to SSTR5).
Result: 79

Problem: Using the record for COC1C(O)C(COCc2ccc(-c3ccccc3)cc2)OC(OCc2ccc3ccccc3c2)C1NC(=O)CCNC(=N)N (stereo not shown) , report its SSTR5 Inhib 10 uM % (inhibition of binding of SST-14 to SSTR5).
Result: 72

Problem: Using the record for CSC1O[C@H](COCc2ccc(-c3ccccc3)cc2)[C@@H](O)[C@@H](OCc2ccc3ccccc3c2)[C@H]1NC(=O)CNC(=N)N (stereo partly shown) , report its SSTR5 Inhib 10 uM % (inhibition of binding of SST-14 to SSTR5).
Result: 79
